# Assay Procedure: recombinant UMI read abundance after kanamycin selection (control-corrected) (log10(CPM+1)); higher = more efficient recombination; extreme values may be limits of the assay; sequences stand for … in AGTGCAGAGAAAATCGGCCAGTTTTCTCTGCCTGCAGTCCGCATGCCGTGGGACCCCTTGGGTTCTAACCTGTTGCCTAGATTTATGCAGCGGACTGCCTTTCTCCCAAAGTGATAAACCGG…AGGTTGGTTTCACT; site = the 11-nt donor
Assay Readout: recombinant UMI read abundance (log10)

Known results for sequences:
>>> print(df.to_string())
                             sequence_input  endpoint_result
0  GCCATATCATGGACCGGTTTTCCCGGTAATCCGTATTTGTC (site CCCATATCTGA)             0.61
1  AGCACATCATGGACCGGTTTTCCCGGTAATCCGTATTTGGG (site AGCACATCTCC)           0.0655

Moving on to the next sequence.
Problem: Record request: recombinant UMI read abundance (log10) value, item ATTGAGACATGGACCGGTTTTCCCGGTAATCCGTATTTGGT (site ATTGAGACTAT)
Solution: 1.17

* * *

# Assay Procedure: recombinant UMI read abundance after kanamycin selection (control-corrected) (log10(CPM+1)); higher = more efficient recombination; extreme values may be limits of the assay; sequences stand for … in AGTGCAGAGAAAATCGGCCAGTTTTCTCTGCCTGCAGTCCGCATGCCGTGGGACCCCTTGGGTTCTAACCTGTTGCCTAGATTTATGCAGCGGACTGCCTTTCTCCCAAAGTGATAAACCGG…AGGTTGGTTTCACT; site = the 11-nt donor
Below is a list of entries, each paired with its recorded recombinant UMI read abundance (log10) value.
No unit in the answer, please; the number alone is enough.

>>> print(df.to_string())
                             sequence_input  endpoint_result
0  GCGTAGCCATGGACCGGTTTTCCCGGTAATCCGTATTTGGG (site GCGTAGCCTCC)           0.0103
1  TCCAAGTCATGGACCGGTTTTCCCGGTAATCCGTATTTGCC (site TCCAAATCTGG)                0
2  GAGCACTCATGGACCGGTTTTCCCGGTAATCCGTATTTGCG (site GAGCACTCTCG)             3.08
3  GTAGTTACATGGACCGGTTTTCCCGGTAATCCGTATTTGAC (site GTAGCTACTGT)             1.23
4  TAGCCATCATGGACCGGTTTTCCCGGTAATCCGTATTTGGT (site TAGCCGTCTAC)           0.0186

Moving on to the next sequence.
Problem: Record request: recombinant UMI read abundance (log10) value, item AGAAAAACATGGACCGGTTTTCCCGGTAATCCGTATTTGCA (site AGAAAAACTTG)
Solution: 2.23

* * *

# Assay Procedure: recombinant UMI read abundance after kanamycin selection (control-corrected) (log10(CPM+1)); higher = more efficient recombination; extreme values may be limits of the assay; sequences stand for … in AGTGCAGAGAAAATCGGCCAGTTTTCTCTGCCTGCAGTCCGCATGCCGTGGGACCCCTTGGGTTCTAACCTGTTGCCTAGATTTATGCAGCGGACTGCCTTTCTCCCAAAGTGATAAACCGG…AGGTTGGTTTCACT; site = the 11-nt donor
Assay Readout: recombinant UMI read abundance (log10)
No unit in the answer, please; the number alone is enough.

Known results for sequences:
In [3]: df
Out[3]:
                             sequence_input  endpoint_result
0  GAATGGCCATGGACCGGTTTTCCCGGTAATCCGTATTTGGA (site GAATGGCCTTA)                0
1  AGGCTAGCATGGACCGGTTTTCCCGGTAATCCGTATTTGTT (site AGACTAGCTAA)            0.334

Moving on to the next sequence.
Problem: Record request: recombinant UMI read abundance (log10) value, item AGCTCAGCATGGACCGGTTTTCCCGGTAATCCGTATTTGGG (site CGCTCAGCTCC)
Solution: 0.299

* * *

# Assay Procedure: recombinant barcode read abundance after kanamycin selection (control-corrected) (log10(CPM+1)); higher = more efficient recombination; sequences stand for … in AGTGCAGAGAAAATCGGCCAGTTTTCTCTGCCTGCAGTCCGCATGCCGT…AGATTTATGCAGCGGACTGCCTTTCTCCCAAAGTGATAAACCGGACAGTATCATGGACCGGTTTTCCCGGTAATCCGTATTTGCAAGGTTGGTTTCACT; site = the 11-nt target
Below is a list of entries, each paired with its recorded recombinant barcode read abundance (log10) value.
No unit in the answer, please; the number alone is enough.

Known results for sequences:
                             sequence_input  endpoint_result
0  CTAGTGACTTGGGTTCTAACCTGTTGCGG (site CTAGTGACTGC)            0.141
1  CGCGTAACTTGGGTTCTAACCTGTTGCCT (site CGCGTAACTAG)            0.123
2  TATTAGACTTGGGTTCTAACCTGTTGCCT (site AATTAGACTAG)            0.158

Moving on to the next sequence.
Problem: Record request: recombinant barcode read abundance (log10) value, item GTGATCCCTTGGGTTCTAACCTGTTGCTG (site GTGATCCCTCA)
Solution: 1.87

* * *

Below is a list of entries, each paired with its recorded recombinant UMI read abundance (log10) value.
# Assay Procedure: recombinant UMI read abundance after kanamycin selection (control-corrected) (log10(CPM+1)); higher = more efficient recombination; extreme values may be limits of the assay; sequences stand for … in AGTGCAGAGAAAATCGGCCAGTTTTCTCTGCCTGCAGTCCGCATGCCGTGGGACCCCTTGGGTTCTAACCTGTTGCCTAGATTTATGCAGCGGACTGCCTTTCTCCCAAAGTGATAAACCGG…AGGTTGGTTTCACT; site = the 11-nt donor
No unit in the answer, please; the number alone is enough.

Known results for sequences:
>>> df
                             sequence_input                           assay_readout  endpoint_result
0  GGTACTTCATGGACCGGTTTTCCCGGTAATCCGTATTTGTT (site GGTACTTCTAA)  recombinant UMI read abundance (log10)            0.456
1  CGGTAACCATGGACCGGTTTTCCCGGTAATCCGTATTTGAT (site CGGTAACCTAT)  recombinant UMI read abundance (log10)                0
2  CACTTGGCATGGACCGGTTTTCCCGGTAATCCGTATTTGTA (site CACTTGGCTTA)  recombinant UMI read abundance (log10)             1.46

Problem: Record request: recombinant UMI read abundance (log10) value, item GGCCGCACATGGACCGGTTTTCCCGGTAATCCGTATTTGCA (site GGCCGCACTTG)
Solution: 1.77

Problem: Record request: recombinant UMI read abundance (log10) value, item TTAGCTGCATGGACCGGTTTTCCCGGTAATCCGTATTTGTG (site TTAGCTGCTCC)
Solution: 0.0667

Problem: Record request: recombinant UMI read abundance (log10) value, item TGTGATACATGGACCGGTTTTCCCGGTAATCCGTATTTGCC (site TGTGATACTGG)
Solution: 0

Problem: Record request: recombinant UMI read abundance (log10) value, item GCGAATCCATGGACCGGTTTTCCCGGTAATCCGTATTTGGG (site GCGAACCCTCC)
Solution: 0

Problem: Record request: recombinant UMI read abundance (log10) value, item AGGGAGACATGGACCGGTTTTCCCGGTAATCCGTATTTGCG (site AGGGAGACTCG)
Solution: 1.54

* * *

# Assay Procedure: recombinant barcode read abundance after kanamycin selection (control-corrected) (log10(CPM+1)); higher = more efficient recombination; sequences stand for … in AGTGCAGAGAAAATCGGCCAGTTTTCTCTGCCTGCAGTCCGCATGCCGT…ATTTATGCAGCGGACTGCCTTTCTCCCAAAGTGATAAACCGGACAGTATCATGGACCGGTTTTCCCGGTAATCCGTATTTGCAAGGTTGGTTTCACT; site = the 11-nt target
recombinant barcode read abundance (log10) of 0.1 or higher: Fulfilled. Under 0.1: Not fulfilled.

Problem: Please indicate if the recorded recombinant barcode read abundance (log10) for TCTACCCTTTGGGTTCTAACCTGTTGCTGAG [TCTACCCCTCA_LTGcore_TT_RTGcore_CT] (site TCTACCCCTCA) (LTG core: TT, RTG core: CT) meets or exceeds 0.1.
Solution: Not fulfilled

Problem: Please indicate if the recorded recombinant barcode read abundance (log10) for GAGTCCAACTGGGTTCTAACCTGTTGCGTAG [GAGTCCACTAC_LTGcore_AC_RTGcore_CT] (site GAGTCCACTAC) (LTG core: AC, RTG core: CT) meets or exceeds 0.1.
Solution: Fulfilled

Problem: Please indicate if the recorded recombinant barcode read abundance (log10) for ATGTCCCCATGGGTTCTAACCTGTTGCTCTG [ATGTCCCCTGA_LTGcore_CA_RTGcore_CA] (site ATGTCCCCTGA) (LTG core: CA, RTG core: CA) meets or exceeds 0.1.
Solution: Not fulfilled

Problem: Please indicate if the recorded recombinant barcode read abundance (log10) for TCTACCCGTTGGGTTCTAACCTGTTGCTGAG [TCTACCCCTCA_LTGcore_GT_RTGcore_CT] (site TCTACCCCTCA) (LTG core: GT, RTG core: CT) meets or exceeds 0.1.
Solution: Fulfilled

Problem: Please indicate if the recorded recombinant barcode read abundance (log10) for ATGTCCCTTTGGGTTCTAACCTGTTGCTCAG [ATGTCCCCTGA_LTGcore_TT_RTGcore_CT] (site ATGTCCCCTGA) (LTG core: TT, RTG core: CT) meets or exceeds 0.1.
Solution: Not fulfilled

Problem: Please indicate if the recorded recombinant barcode read abundance (log10) for GGTGCCCCATGGGTTCTAACCTGTTGCCGAG [GGTGCCCCTCG_LTGcore_CA_RTGcore_CT] (site GGTGCCCCTCG) (LTG core: CA, RTG core: CT) meets or exceeds 0.1.
Solution: Fulfilled

Problem: Please indicate if the recorded recombinant barcode read abundance (log10) for TTATAAACTTGGGTTCTAACCTGTTGCCTGC [TTATAAACTAG_LTGcore_CT_RTGcore_GC] (site TTATAAACTAG) (LTG core: CT, RTG core: GC) meets or exceeds 0.1.
Solution: Fulfilled
